Examples of molecules with documented EC50 follow.
- System: A2780CP20 (Cisplatin resistant)
- Measurement protocol: Ovarian cancer cell drug susceptibility (Alamar blue), A2780CP20
- Assay type: cell-based, human
- Measurement context: Homo sapiens; 44 h + 4 h Alamar blue
Reported endpoint: EC50 (µM)

> print(dat)
                    structure.smiles.string  relation.operator  numeric.readout
1      O=c1[nH]c(=O)c2cc(-c3ccccc3)sc2[nH]1                  >               50
2  O=C1NC(=S)S/C1=C/c1cc(Br)ccc1OCc1ccccc1Br                  =             17.3
3          Nc1c[nH]c(=O)c2cc(-c3ccccc3)sc12                  =             13.1
